Attribution: paper PMC4429956

Target System: fluorescent H3K4me3 peptide
Experiment Notes: fluorescence polarisation; increasing concentrations of TAF3 PHD finger with fluorescent H3K4me3 peptide, no PI; apparent KD
Attribute Measured: Kd (nM)
Give the value in nM but do not write nM after it.

For this binder ( GST-TAF3 PHD finger, wild type (domain or fragment, modifications not checked) IWICPGCNKPDDGSPMIGCDDCDDWYHWPCVGIMTAPPEEMQWFCPKCANKKKDKKHKKRKHRAH ), measured Kd is 1000
